Just for reference, patent US20070111251A1 is where these values come from.

# Test system: live UACC-62 human melanoma cells
# measurement_description: Organelle-binding test: subcellular localization of styryl library compounds by fluorescence microscopy
# Type: cell-based
# Design: key: The subscript m indicates experimentally determined mitochondrial localization; The subscript o indicates experimentally determined non-mitochondrial localization
# measurement_parameters: mitochondrial vs non-mitochondrial, live UACC-62 cells
measure: experimentally determined localization (subscript)

| compound_structure_string | meas_value |
| --- | --- |
| C[n+]1ccc(C=Cc2ccccc2[N+](=O)[O-])c2ccccc21.[I-] | m |
| Cc1ccnc(-c2cc(C=CCc3ccccc3)cc[n+]2C)c1.[I-] | m |
| C[n+]1c(C=CCc2ccccc2)ccc2ccccc21.[I-] | m |
| COc1ccc2c(ccc(C=Cc3cccc([N+](=O)[O-])c3)[n+]2C)c1.[I-] | o |

====

# Tested on: HeLa cells
# measurement_description: Kinetic imaging of NBD-triazine probe uptake and sequestration, fitted to nested two-compartment transport model
# Type: cell-based
# measurement_parameters: median over optimal solutions within 5% of the best fit
measure: median Pap(cyto) (apparent partition coefficient between extracellular medium and cytosol)
// return just the number, without any unit appended

Some molecules with recorded median Pap(cyto) (apparent partition coefficient between extracellular medium and cytosol):
| molecule | meas_value |
| --- | --- |
| COc1ccc(CNc2nc(NCCCCCCNc3ccc([N+](=O)[O-])c4nonc34)nc(NC(C)C)n2)cc1 | 239.41 |
| Cc1ccc(CNc2nc(NCCCCCCNc3ccc([N+](=O)[O-])c4nonc34)nc(NCCc3ccccn3)n2)cc1 | 267.03 |

Fill in median Pap(cyto) (apparent partition coefficient between extracellular medium and cytosol) for record CC(C)Nc1nc(NCCCCCCNc2ccc([N+](=O)[O-])c3nonc23)nc(NCc2cccc(F)c2)n1 [Compound E2] 49.62

# return recorded median Pap(cyto) (apparent partition coefficient between extracellular medium and cytosol) for entry COc1cccc(CNc2nc(NCCCCCCNc3ccc([N+](=O)[O-])c4nonc34)nc(NC3CCCCC3C)n2)c1 (stereo not shown) 9.10

Output measured median Pap(cyto) (apparent partition coefficient between extracellular medium and cytosol) for this item: O=[N+]([O-])c1ccc(NCCCCCCNc2nc(NCCc3ccccn3)nc(NCCC(c3ccccc3)c3ccccc3)n2)c2nonc12 2989.27

Return the recorded median Pap(cyto) (apparent partition coefficient between extracellular medium and cytosol) value; entry: COc1ccc(CNc2nc(NCCCCCCNc3ccc([N+](=O)[O-])c4nonc34)nc(NCC3CCCCC3)n2)cc1 19.15

Give the measured median Pap(cyto) (apparent partition coefficient between extracellular medium and cytosol) for CCCCNc1nc(NCCCCCCNc2ccc([N+](=O)[O-])c3nonc23)nc(NCc2ccc(OC)cc2)n1 10.25

Tell me its median Pap(cyto) (apparent partition coefficient between extracellular medium and cytosol) given COc1cccc(CNc2nc(NCCCCCCNc3ccc([N+](=O)[O-])c4nonc34)nc(NCCC(C)C)n2)c1OC as the entry. 12.95

Provide one value: measured median Pap(cyto) (apparent partition coefficient between extracellular medium and cytosol) of CC(C)Nc1nc(NCCCCCCNc2ccc([N+](=O)[O-])c3nonc23)nc(NCCC(c2ccccc2)c2ccccc2)n1 79.42

Please list median Pap(cyto) (apparent partition coefficient between extracellular medium and cytosol) recorded for the molecule CCCCCCCCNc1nc(NCCCCCCNc2ccc([N+](=O)[O-])c3nonc23)nc(NCc2ccccc2)n1 12.96

In one line, give reported median Pap(cyto) (apparent partition coefficient between extracellular medium and cytosol) of the entry Cc1ccc(CNc2nc(NCCCCCCNc3ccc([N+](=O)[O-])c4nonc34)nc(NC(C)C)n2)cc1 . 211.16

Please list median Pap(cyto) (apparent partition coefficient between extracellular medium and cytosol) recorded for the molecule O=[N+]([O-])c1ccc(NCCCCCCNc2nc(NCCc3ccccc3)nc(NCCC(c3ccccc3)c3ccccc3)n2)c2nonc12 1.44

Read the entry Cc1ccc(CNc2nc(NCCCCCCNc3ccc([N+](=O)[O-])c4nonc34)nc(NCC3CCCCC3)n2)cc1 and write its reported median Pap(cyto) (apparent partition coefficient between extracellular medium and cytosol). 35.66

Hello, please tell me recorded median Pap(cyto) (apparent partition coefficient between extracellular medium and cytosol) for this one: COc1ccc(CNc2nc(NCCCCCCNc3ccc([N+](=O)[O-])c4nonc34)nc(NC3CCC(C)CC3)n2)cc1 (stereo not shown) 22.58

Using known records, supply median Pap(cyto) (apparent partition coefficient between extracellular medium and cytosol) for COc1cccc(CNc2nc(NCCCCCCNc3ccc([N+](=O)[O-])c4nonc34)nc(NCCc3ccccn3)n2)c1 15351.10

Entry CCCCCCCCNc1nc(NCCCCCCNc2ccc([N+](=O)[O-])c3nonc23)nc(NCCc2ccc(OC)cc2)n1 needs its median Pap(cyto) (apparent partition coefficient between extracellular medium and cytosol) filled in; supply it. 2.75

Please supply the value of reported median Pap(cyto) (apparent partition coefficient between extracellular medium and cytosol) for the item CC1CCC(Nc2nc(NCCCCCCNc3ccc([N+](=O)[O-])c4nonc34)nc(NCc3ccccc3)n2)CC1 (stereo not shown) 7.72

In one line, give reported median Pap(cyto) (apparent partition coefficient between extracellular medium and cytosol) of the entry COc1ccc(CCNc2nc(NCCCCCCNc3ccc([N+](=O)[O-])c4nonc34)nc(NCC3CCCCC3)n2)cc1 . 141.76
